TARGET_OR_SYSTEM: NAMPT (Homo sapiens)
Construct: purchased Abcam ab221819
Sequence (P43490 whole entry): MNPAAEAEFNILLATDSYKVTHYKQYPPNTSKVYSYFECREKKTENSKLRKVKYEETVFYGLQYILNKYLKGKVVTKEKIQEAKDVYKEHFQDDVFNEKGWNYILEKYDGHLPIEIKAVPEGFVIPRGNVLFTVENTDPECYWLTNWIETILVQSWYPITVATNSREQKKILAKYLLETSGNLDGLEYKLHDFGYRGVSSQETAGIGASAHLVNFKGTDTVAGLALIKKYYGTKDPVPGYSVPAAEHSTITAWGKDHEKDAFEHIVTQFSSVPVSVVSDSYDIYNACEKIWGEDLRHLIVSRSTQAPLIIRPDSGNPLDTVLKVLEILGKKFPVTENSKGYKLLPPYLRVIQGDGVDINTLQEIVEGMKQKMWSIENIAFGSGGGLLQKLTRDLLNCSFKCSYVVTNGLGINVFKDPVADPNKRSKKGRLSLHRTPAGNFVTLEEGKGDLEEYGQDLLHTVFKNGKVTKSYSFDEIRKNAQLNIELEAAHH
ASSAY_OVERVIEW: NAMPT Activity Assay (Abcam #ab221819)
Type: biochemical
PARTICULARS: purified NAMPT, percent inhibition from OD450 nm; compound concentration not given
MEASURED_ENDPOINT: NAMPT Inhibition Code*

SMILES_INPUT	REPORTED
CC(=O)N(CC1CC1)c1ccc(-c2ccc(NC(=O)CC3CCCCC3)cn2)cc1Cl	A (*A = <33% inhibition)
CC(=O)N(CC1CC1)c1ccc(-c2ccc(C(=O)NCCc3cn[nH]c3)cn2)cc1Cl	C (C = ≥66% inhibition)
CC(=O)N(CC1CC1)c1ccc(-c2ccc(C(=O)NCC3CCCCC3)cn2)cc1Cl	C (C = ≥66% inhibition)
CC(=O)N(CC1CC1)c1ccc(-c2ccc(C(=O)N3Cc4ccc(F)cc4C3)cn2)cc1Cl	C (C = ≥66% inhibition)
CC(=O)N(CC1CC1)c1ccc(-c2ccc(C(=O)NCc3cscn3)cn2)cc1Cl	A (*A = <33% inhibition)
CC(=O)N(CC1CC1)c1ccc(-c2ccc(C(=O)NCCc3cncs3)cn2)cc1Cl	C (C = ≥66% inhibition)
